Could you please report measured IC50 for the items listed next?
Molecular target: PKB-PIF fusion protein (protein kinase B) (Homo sapiens)
Construct: PIF (fusion partner); made in house
Sequence (P31751 with tags, fused parts or gaps limits assumed): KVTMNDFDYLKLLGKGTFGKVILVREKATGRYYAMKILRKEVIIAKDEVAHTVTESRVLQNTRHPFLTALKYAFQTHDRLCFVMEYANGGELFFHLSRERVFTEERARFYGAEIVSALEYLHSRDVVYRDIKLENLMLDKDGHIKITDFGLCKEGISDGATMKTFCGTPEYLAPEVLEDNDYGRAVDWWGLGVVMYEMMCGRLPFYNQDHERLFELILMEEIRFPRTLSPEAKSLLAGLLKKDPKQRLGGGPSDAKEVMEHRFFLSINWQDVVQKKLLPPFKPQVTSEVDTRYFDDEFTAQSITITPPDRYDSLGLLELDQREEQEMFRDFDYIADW
Experiment: Measurement of PKB kinase inhibitory activity (IC50)
Type: biochemical
Conditions: 0.6 nM enzyme, 30 μM ATP/γ33P-ATP, 25 μM AKTide-2T substrate; read-out: PKB IC50

Cc1n[nH]c(C)c1-c1cccc(CC(N)c2ccccc2)c1 (centres unmarked) [Example 5] : < 5 µM
CNC(=O)C(c1ccc(Cl)cc1)c1ccc(-c2cn[nH]c2)cc1 (centres unmarked) [Example 40] : < 50 µM
Clc1ccc(C2(c3ccc(-c4cn[nH]c4)cc3)CCNCC2)cc1 [Example 14] : < 1 µM

Please look at the items below and tell me IC50 for each one, in order.
1. CNCC(c1ccc(-c2cn[nH]c2)cc1)c1cccc(Cl)c1 (centres unmarked) [Example 66]
2. COCCOc1ccc(C2(c3ccc(-c4cn[nH]c4)cc3)CCNCC2)cc1 [Example 67]

Reply:
["< 1 µM", "< 5 µM"]
